The entries that follow carry IC50 values tested on yeast HSP90 (Saccharomyces cerevisiae), drawn from several published reports.

Solved cases (4 shown):
> print(dat)
                                   compound  value.reported
1  Oc1cc(O)c(-c2c(N3CCNCC3)cnn2Cc2ccccc2)cc1Br         > 50 µM
2  Cc1ccc(CCc2cc(-c3n[nH]cc3N3CCNCC3)c(O)cc2O)c(C)c1         < 50 µM
3  Oc1cc(O)c(-c2n[nH]cc2N2CCNCC2)cc1CCc1ccccc1F         < 50 µM
4  Oc1cc(O)c(-c2n[nH]cc2N2CCC(NCc3ccc(Br)cc3)CC2)cc1Br         < 50 µM

For O=C(NC1c2ccccc2-c2c(-c3cnc4ccccc4n3)cccc21)c1ccnc2[nH]ccc12 (racemic) , what is its reported IC50? 1 to 10 µM

For Clc1nc(N2CCN(Cc3ccccc3)CC2)c2cc[nH]c2n1 , what is its reported IC50? 1 to 10 µM

For Oc1cc(O)c(-c2n[nH]cc2N2CCNCC2)cc1CCc1ccc(F)cc1 , what is its reported IC50? < 50 µM

###

pIC50: −log10 of the molar value.
The entries that follow carry pIC50 values tested on yeast HSP90 (Saccharomyces cerevisiae, UniProt P02829), drawn from several published reports.

Solved cases (4 shown):
> print(dat)
                                   compound  result.type  value.reported
1     C=CCNC(=O)c1c[nH]nc1-c1cc(Cl)c(O)cc1O        pIC50          < 4.30
2  Oc1cc(O)c(-c2n[nH]cc2N2CCN(Cc3ccccn3)CC2)cc1Cl        pIC50          > 4.30
3           Oc1cc(F)ccc1-c1n[nH]cc1N1CCNCC1        pIC50          < 4.30
4  O=C(Nc1ccc(O)c(O)c1)c1c[nH]nc1-c1cc(Cl)c(O)cc1O        pIC50          < 4.30

Query for yeast HSP90 (Saccharomyces cerevisiae, UniProt P02829): what pIC50 does the record show for O=C(NC1c2ccccc2-c2c(-c3cn4ccccc4n3)cccc21)c1ccnc2[nH]ccc12 (racemic) ? > 6.00

Query for yeast HSP90 (Saccharomyces cerevisiae, UniProt P02829): what pIC50 does the record show for COc1ccc(CN2CCN(c3c[nH]nc3-c3cc(Cl)c(O)cc3O)CC2)cc1 ? > 4.30
